Origin of measurements: ChEMBL document CHEMBL4052644

Overview of recorded Ratio IC50 for various compounds
Experiment: Selectivity index, ratio of IC50 for human FR2 cells to IC50 for human A549 cells
Assay type: functional
Answer as a number with no unit attached.

The following compounds have reported results that may help.
C=C(C)[C@@H]1CC[C@]2(C(=O)O)CC[C@]3(C)[C@H](CC[C@@H]4[C@@]5(C)C/C(=C\c6ccc(OC)cc6)[C@H](O)C(C)(C)[C@@H]5CC[C@]43C)[C@@H]12	5.016
C=C(C)[C@@H]1CC[C@]2(C(=O)O)CC[C@]3(C)[C@H](CC[C@@H]4[C@@]5(C)C/C(=C\c6ccccc6Br)C(=O)C(C)(C)[C@@H]5CC[C@]43C)[C@@H]12	3.111
C=C(C)[C@@H]1CC[C@]2(C(=O)O)CC[C@]3(C)[C@H](CC[C@@H]4[C@@]5(C)C/C(=C\c6ccc([N+](=O)[O-])cc6)C(=O)C(C)(C)[C@@H]5CC[C@]43C)[C@@H]12	9.353
C=C(C)[C@@H]1CC[C@]2(C(=O)O)CC[C@]3(C)[C@H](CC[C@@H]4[C@@]5(C)C/C(=C\c6cccc([N+](=O)[O-])c6)[C@H](O)C(C)(C)[C@@H]5CC[C@]43C)[C@@H]12	9.88

Now take the following compound into account.
Ask: Name the reported Ratio IC50 value associated with the compound "C=C(C)[C@@H]1CC[C@]2(C(=O)O)CC[C@]3(C)[C@H](CC[C@@H]4[C@@]5(C)C/C(=C\c6cc(Br)ccc6OC)C(=O)C(C)(C)[C@@H]5CC[C@]43C)[C@@H]12"
Result: 7.705

---

The reader will find reported pIC50 values listed item by item below.
Test system: HCT-116
Experiment: Cytotoxicity against human HCT116 cells assessed as reduction in cell viability after 48 hrs by SRB assay
Assay type: functional, cell-based
Details: HCT-116, 48 h
In plain terms, pIC50 is the concentration in mol/L turned into minus its base-10 logarithm.

C=C(C)[C@@H]1CC[C@]2(C(=O)O)CC[C@]3(C)[C@H](CC[C@@H]4[C@@]5(C)C/C(=C\c6ccc(Br)o6)C(=O)C(C)(C)[C@@H]5CC[C@]43C)[C@@H]12	5.54
C=C(C)[C@@H]1CC[C@]2(C(=O)O)CC[C@]3(C)[C@H](CC[C@@H]4[C@@]5(C)C/C(=C\c6cccc(Br)c6)C(=O)C(C)(C)[C@@H]5CC[C@]43C)[C@@H]12	5.31
C=C(C)[C@@H]1CC[C@]2(C(=O)O)CC[C@]3(C)[C@H](CC[C@@H]4[C@@]5(C)C/C(=C\c6ccc(F)cc6)[C@H](O)C(C)(C)[C@@H]5CC[C@]43C)[C@@H]12	5.82
C=C(C)[C@@H]1CC[C@]2(C(=O)O)CC[C@]3(C)[C@H](CC[C@@H]4[C@@]5(C)C/C(=C\c6cccc7ccccc67)[C@H](O)C(C)(C)[C@@H]5CC[C@]43C)[C@@H]12	5.44
C=C(C)[C@@H]1CC[C@]2(C(=O)O)CC[C@]3(C)[C@H](CC[C@@H]4[C@@]5(C)C/C(=C\c6cccc([N+](=O)[O-])c6)C(=O)C(C)(C)[C@@H]5CC[C@]43C)[C@@H]12	5.12
C=C(C)[C@@H]1CC[C@]2(C(=O)O)CC[C@]3(C)[C@H](CC[C@@H]4[C@@]5(C)C/C(=C\c6ccsc6)C(=O)C(C)(C)[C@@H]5CC[C@]43C)[C@@H]12	5.29

Ask: Look up pIC50: "C=C(C)[C@@H]1CC[C@]2(C(=O)O)CC[C@]3(C)[C@H](CC[C@@H]4[C@@]5(C)C/C(=C\c6cc(Br)ccc6OC)C(=O)C(C)(C)[C@@H]5CC[C@]43C)[C@@H]12"
Result: 5.33

Ask: Reported pIC50 for "C=C(C)[C@@H]1CC[C@]2(C(=O)O)CC[C@]3(C)[C@H](CC[C@@H]4[C@@]5(C)C/C(=C\c6cccc([N+](=O)[O-])c6)[C@H](O)C(C)(C)[C@@H]5CC[C@]43C)[C@@H]12" : what is it?
Result: 5.41

Ask: # get_value(readout='pIC50', item= "C=C(C)[C@@H]1CC[C@]2(C(=O)O)CC[C@]3(C)[C@H](CC[C@@H]4[C@@]5(C)C/C(=C\c6ccc(F)c(Br)c6)[C@H](O)C(C)(C)[C@@H]5CC[C@]43C)[C@@H]12" )
Result: 5.08

Ask: So what does the record say about pIC50 for "C=C(C)[C@@H]1CC[C@]2(C(=O)O)CC[C@]3(C)[C@H](CC[C@@H]4[C@@]5(C)C/C(=C\c6ccc(OC)cc6)C(=O)C(C)(C)[C@@H]5CC[C@]43C)[C@@H]12" ?
Result: 5.27

---

Test: Selectivity index, ratio of IC50 for human FR2 cells to IC50 for human PC3 cells
Type: functional
reportedEndpoint: Ratio IC50
// no unit string in output, number only

Here's what some known entries look like.
C=C(C)[C@@H]1CC[C@]2(C(=O)O)CC[C@]3(C)[C@H](CC[C@@H]4[C@@]5(C)C/C(=C\c6cc(Br)ccc6OC)C(=O)C(C)(C)[C@@H]5CC[C@]43C)[C@@H]12	1.854
C=C(C)[C@@H]1CC[C@]2(C(=O)O)CC[C@]3(C)[C@H](CC[C@@H]4[C@@]5(C)C/C(=C\c6cccnc6)C(=O)C(C)(C)[C@@H]5CC[C@]43C)[C@@H]12	15.15

Ask: Reported Ratio IC50 for "C=C(C)[C@@H]1CC[C@]2(C(=O)O)CC[C@]3(C)[C@H](CC[C@@H]4[C@@]5(C)C/C(=C\c6ccc([N+](=O)[O-])cc6)[C@H](O)C(C)(C)[C@@H]5CC[C@]43C)[C@@H]12" : what is it?
Result: 10.5

---

Each item that follows carries a reported inhibition of growth at 10 µM.
System: MCF7
Experiment: Growth inhibition of human MCF7 cells at 10 uM after 48 hrs by SRB assay relative to control
Format: functional
Settings: MCF7, 48 h, read-out: GI
Please give a number only; it is taken to be in %.

C=C(C)[C@@H]1CC[C@]2(C(=O)O)CC[C@]3(C)[C@H](CC[C@@H]4[C@@]5(C)C/C(=C\c6ccc([N+](=O)[O-])cc6)C(=O)C(C)(C)[C@@H]5CC[C@]43C)[C@@H]12	83
C=C(C)[C@@H]1CC[C@]2(C(=O)O)CC[C@]3(C)[C@H](CC[C@@H]4[C@@]5(C)C/C(=C\c6cccnc6)C(=O)C(C)(C)[C@@H]5CC[C@]43C)[C@@H]12	97
C=C(C)[C@@H]1CC[C@]2(C(=O)O)CC[C@]3(C)[C@H](CC[C@@H]4[C@@]5(C)C/C(=C\c6ccc(F)c(Br)c6)[C@H](O)C(C)(C)[C@@H]5CC[C@]43C)[C@@H]12	72
C=C(C)[C@@H]1CC[C@]2(C(=O)O)CC[C@]3(C)[C@H](CC[C@@H]4[C@@]5(C)C/C(=C\c6ccc(F)c(Br)c6)C(=O)C(C)(C)[C@@H]5CC[C@]43C)[C@@H]12	85

Consider the record given below.
Ask: Look at this molecule and give its reported inhibition of growth at 10 µM. "C=C(C)[C@@H]1CC[C@]2(C(=O)O)CC[C@]3(C)[C@H](CC[C@@H]4[C@@]5(C)C/C(=C\c6ccc(OC)cc6)C(=O)C(C)(C)[C@@H]5CC[C@]43C)[C@@H]12"
Result: 88

---

Test system: MIA PaCa-2
Assay: Growth inhibition of human MIAPaCa2 at 10 uM after 48 hrs by SRB assay relative to control
Format: functional
Settings: MIA PaCa-2, 48 h, read-out: GI
reportedEndpoint: inhibition of growth at 10 µM (%)
# unit: % | format: bare number

Study these solved cases before continuing.
C=C(C)[C@@H]1CC[C@]2(C(=O)O)CC[C@]3(C)[C@H](CC[C@@H]4[C@@]5(C)C/C(=C\c6ccc(F)cc6)C(=O)C(C)(C)[C@@H]5CC[C@]43C)[C@@H]12	96
C=C(C)[C@@H]1CC[C@]2(C(=O)O)CC[C@]3(C)[C@H](CC[C@@H]4[C@@]5(C)C/C(=C\c6ccc(Br)cc6)C(=O)C(C)(C)[C@@H]5CC[C@]43C)[C@@H]12	27

Ask: Could you tell me which inhibition of growth at 10 µM is on file for "C=C(C)[C@@H]1CC[C@]2(C(=O)O)CC[C@]3(C)[C@H](CC[C@@H]4[C@@]5(C)C/C(=C\c6ccccc6Br)C(=O)C(C)(C)[C@@H]5CC[C@]43C)[C@@H]12" ?
Result: 81

---

Assay: Selectivity index, ratio of IC50 for human FR2 cells to IC50 for human A549 cells
Format: functional
For each record, check the reported Ratio IC50: if it is below 4 write True, else write False.

Some solved cases for reference:
C=C(C)[C@@H]1CC[C@]2(C(=O)O)CC[C@]3(C)[C@H](CC[C@@H]4[C@@]5(C)C/C(=C\c6cccnc6)[C@H](O)C(C)(C)[C@@H]5CC[C@]43C)[C@@H]12	True
C=C(C)[C@@H]1CC[C@]2(C(=O)O)CC[C@]3(C)[C@H](CC[C@@H]4[C@@]5(C)C/C(=C\c6c(Cl)cccc6Cl)C(=O)C(C)(C)[C@@H]5CC[C@]43C)[C@@H]12	True
C=C(C)[C@@H]1CC[C@]2(C(=O)O)CC[C@]3(C)[C@H](CC[C@@H]4[C@@]5(C)C/C(=C\c6cccc(Br)c6)[C@H](O)C(C)(C)[C@@H]5CC[C@]43C)[C@@H]12	False

Ask: Below 4 on Ratio IC50? Entry "C=C(C)[C@@H]1CC[C@]2(C(=O)O)CC[C@]3(C)[C@H](CC[C@@H]4[C@@]5(C)C/C(=C\c6ccc(F)cc6)C(=O)C(C)(C)[C@@H]5CC[C@]43C)[C@@H]12"
Result: False

Ask: Hi there! Is Ratio IC50 for "C=C(C)[C@@H]1CC[C@]2(C(=O)O)CC[C@]3(C)[C@H](CC[C@@H]4[C@@]5(C)C/C(=C\c6ccc(Br)cc6)[C@H](O)C(C)(C)[C@@H]5CC[C@]43C)[C@@H]12" below 4, do you know?
Result: False
